target: Beta-3 adrenergic receptor (Homo sapiens) (UniProt P13945); test: Beta adrenergic activity was determined by measuring cAMP production on human Beta3 adrenergic transfected COS-7 cells; assay type: functional, cell-based
Sequence (P13945 whole entry, looked up): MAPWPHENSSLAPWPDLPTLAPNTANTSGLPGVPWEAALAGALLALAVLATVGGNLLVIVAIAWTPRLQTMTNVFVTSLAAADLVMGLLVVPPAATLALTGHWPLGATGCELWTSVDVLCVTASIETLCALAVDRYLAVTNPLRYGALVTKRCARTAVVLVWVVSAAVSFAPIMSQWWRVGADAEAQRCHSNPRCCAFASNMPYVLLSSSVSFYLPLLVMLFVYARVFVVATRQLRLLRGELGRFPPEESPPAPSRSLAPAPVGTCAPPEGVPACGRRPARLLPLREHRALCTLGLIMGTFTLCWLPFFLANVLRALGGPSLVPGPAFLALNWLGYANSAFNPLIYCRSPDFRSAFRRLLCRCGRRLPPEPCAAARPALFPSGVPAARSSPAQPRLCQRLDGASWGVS
readout label: cAMP production (pM min-1 well-1)

INSERT INTO measurements (molecule, target_under_test, readout_label, obs_value) VALUES
  ('Cc1c(C)c2c(c(C)c1O)CCC(C)(COc1ccc(NCC(O)COc3cccc4cnccc34)cc1)O2 (centres undefined)', 'Beta-3 adrenergic receptor (Homo sapiens) (UniProt P13945)', 'cAMP production (pM min-1 well-1)', 142),
  ('CC(C)(C)c1cc(CCCOc2ccc(NCC(O)COc3ccc4cccnc4c3)cc2)cc(C(C)(C)C)c1O (centres undefined)', 'Beta-3 adrenergic receptor (Homo sapiens) (UniProt P13945)', 'cAMP production (pM min-1 well-1)', 97.4),
  ('Cc1c(C)c2c(c(C)c1O)CCC(C)(COc1ccc(NCC(O)COc3cccc4ncccc34)cc1)O2 (centres undefined)', 'Beta-3 adrenergic receptor (Homo sapiens) (UniProt P13945)', 'cAMP production (pM min-1 well-1)', 103),
  ('CC(C)(C)c1cc(CCCOc2ccc(NCC(O)COc3cccc4cnccc34)cc2)cc(C(C)(C)C)c1O (centres undefined)', 'Beta-3 adrenergic receptor (Homo sapiens) (UniProt P13945)', 'cAMP production (pM min-1 well-1)', 130);

====

target: Beta-3 adrenergic receptor (Homo sapiens) (UniProt P13945); assay: Beta adrenergic activity as cAMP production in human Beta3 adrenergic receptor expressing COS-7 cells with propranolol; type: functional, cell-based
readout label: cAMP production (pM min-1 well-1)

Check out these entries, answers already filled in.
INSERT INTO assay_data (compound, obs_value) VALUES
  ('Cc1c(C)c2c(c(C)c1O)CCC(C)(COc1ccc(NCC(O)COc3cccc4ncccc34)cc1)O2 (configuration not stated)', 28.6),
  ('CC(C)(C)c1cc(CCCOc2ccc(NCC(O)COc3ccc4ccncc4c3)cc2)cc(C(C)(C)C)c1O (configuration not stated)', 23.9),
  ('Cc1c(C)c2c(c(C)c1O)CCC(C)(COc1ccc(NCC(O)COc3ccc4ccncc4c3)cc1)O2 (configuration not stated)', 33.2),
  ('CC(C)(C)c1cc(CCCOc2ccc(NCC(O)COc3cccc4cnccc34)cc2)cc(C(C)(C)C)c1O (configuration not stated)', 76.3),
  ('CC(C)(C)c1cc(CCCOc2ccc(NCC(O)COc3ccc4cccnc4c3)cc2)cc(C(C)(C)C)c1O (configuration not stated)', 21.4);

I. Cc1c(C)c2c(c(C)c1O)CCC(C)(COc1ccc(NCC(O)COc3cccc4[nH]c5ccccc5c34)cc1)O2 (configuration not stated)
II. Cc1c(C)c2c(c(C)c1O)CCC(C)(COc1ccc(NCC(O)COc3cccc4cnccc34)cc1)O2 (configuration not stated)
Query :: Could you tell me which of I and II has the lower cAMP production (pM min-1 well-1) reading? Indicate your choice by writing its label.
Result :: I
(I: 22.3, II: 41.6)

====

organism: Bos taurus; experiment: Oxidation was assessed indirectly by measuring bovine serum albumin thiol protection by using Ellman''s test at 500 uM; type: functional
readout label: Protection (%)
Field format: number, assumed %, no unit text.

Check out these entries, answers already filled in.
INSERT INTO assay_data (molecule, obs_value) VALUES
  ('Cc1c(C)c2c(c(C)c1O)CCC(C)(COc1ccc(NCC(O)COc3cccc4cnccc34)cc1)O2 (centres undefined)', 54.8),
  ('Cc1c(C)c2c(c(C)c1O)CCC(C)(C(=O)O)O2 (centres undefined)', 31.4),
  ('Cc1c(C)c2c(c(C)c1O)CCC(C)(COc1ccc(NCC(O)COc3cccc4ncccc34)cc1)O2 (centres undefined)', 49.2);

Query :: What does the data say about its Protection? Entry: COc1ccccc1OCCNCC(O)COc1cccc2[nH]c3ccccc3c12 (centres undefined)
Result :: 20
